Entry source: patent US9518052B2

Biological target: UniProt:P23458
Sequence (P23458 whole entry, species assumed): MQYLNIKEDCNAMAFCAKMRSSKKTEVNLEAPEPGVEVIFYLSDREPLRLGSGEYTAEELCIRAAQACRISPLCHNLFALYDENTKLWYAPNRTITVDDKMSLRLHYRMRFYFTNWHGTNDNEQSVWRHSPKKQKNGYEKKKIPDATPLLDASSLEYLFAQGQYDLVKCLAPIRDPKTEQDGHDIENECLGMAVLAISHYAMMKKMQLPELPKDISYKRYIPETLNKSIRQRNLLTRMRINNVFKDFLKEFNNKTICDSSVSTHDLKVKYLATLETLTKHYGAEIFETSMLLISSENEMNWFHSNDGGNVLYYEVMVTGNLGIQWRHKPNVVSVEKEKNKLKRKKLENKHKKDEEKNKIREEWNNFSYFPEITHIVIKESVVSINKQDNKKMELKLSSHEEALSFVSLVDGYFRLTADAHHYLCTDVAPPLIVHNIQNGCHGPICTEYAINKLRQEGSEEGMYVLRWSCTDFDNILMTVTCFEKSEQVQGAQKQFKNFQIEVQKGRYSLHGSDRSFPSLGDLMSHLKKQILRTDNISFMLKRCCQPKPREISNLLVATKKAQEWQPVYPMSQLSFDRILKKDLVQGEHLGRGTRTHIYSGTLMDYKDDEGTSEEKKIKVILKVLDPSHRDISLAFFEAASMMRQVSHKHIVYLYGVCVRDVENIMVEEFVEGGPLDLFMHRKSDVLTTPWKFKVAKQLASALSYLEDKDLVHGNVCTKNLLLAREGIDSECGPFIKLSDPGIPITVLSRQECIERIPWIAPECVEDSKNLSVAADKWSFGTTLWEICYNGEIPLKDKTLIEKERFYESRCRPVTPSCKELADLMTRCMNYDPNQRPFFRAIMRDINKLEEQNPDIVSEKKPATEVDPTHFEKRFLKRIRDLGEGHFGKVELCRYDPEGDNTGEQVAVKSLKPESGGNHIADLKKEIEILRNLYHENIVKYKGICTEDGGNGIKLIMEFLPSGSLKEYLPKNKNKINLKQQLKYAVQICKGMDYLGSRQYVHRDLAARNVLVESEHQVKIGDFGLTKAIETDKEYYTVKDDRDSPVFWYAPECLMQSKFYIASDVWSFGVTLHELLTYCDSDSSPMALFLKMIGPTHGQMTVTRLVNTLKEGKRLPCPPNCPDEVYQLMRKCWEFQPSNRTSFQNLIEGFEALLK
measurement.type: IC50 (nM)
Output spec: scalar in nM, unitless text.

query: # input compound: `CCc1cc(O)c(F)cc1-c1cc2[nH]nc(C(=O)NC)c2c(NCc2cc(F)ccc2N(C)S(C)(=O)=O)n1` ; wanted: its IC50
result: 1.7

query: Same for `CCc1cc(O)ccc1-c1cc2[nH]ncc2c(NCc2c(C)cccc2N(C)S(C)(=O)=O)n1`
result: 6

query: Same for `CCc1cc(O)c(F)cc1-c1cc2[nH]nc(C(=O)NC)c2c(NCc2ccccc2N(CC)S(=O)(=O)CC)n1`
result: 3.4

query: Same for `CNC(=O)c1n[nH]c2cc(-c3cc(F)c(O)cc3CC(F)(F)F)nc(NCc3ccccc3N(C)S(=O)(=O)c3cccc(O)c3)c12`
result: 60.4

====

Where a name gives a salt, the structure may show the parent alone.
Entries with reported IC50 on UniProtKB P29597
Sequence (P29597 whole entry, species assumed): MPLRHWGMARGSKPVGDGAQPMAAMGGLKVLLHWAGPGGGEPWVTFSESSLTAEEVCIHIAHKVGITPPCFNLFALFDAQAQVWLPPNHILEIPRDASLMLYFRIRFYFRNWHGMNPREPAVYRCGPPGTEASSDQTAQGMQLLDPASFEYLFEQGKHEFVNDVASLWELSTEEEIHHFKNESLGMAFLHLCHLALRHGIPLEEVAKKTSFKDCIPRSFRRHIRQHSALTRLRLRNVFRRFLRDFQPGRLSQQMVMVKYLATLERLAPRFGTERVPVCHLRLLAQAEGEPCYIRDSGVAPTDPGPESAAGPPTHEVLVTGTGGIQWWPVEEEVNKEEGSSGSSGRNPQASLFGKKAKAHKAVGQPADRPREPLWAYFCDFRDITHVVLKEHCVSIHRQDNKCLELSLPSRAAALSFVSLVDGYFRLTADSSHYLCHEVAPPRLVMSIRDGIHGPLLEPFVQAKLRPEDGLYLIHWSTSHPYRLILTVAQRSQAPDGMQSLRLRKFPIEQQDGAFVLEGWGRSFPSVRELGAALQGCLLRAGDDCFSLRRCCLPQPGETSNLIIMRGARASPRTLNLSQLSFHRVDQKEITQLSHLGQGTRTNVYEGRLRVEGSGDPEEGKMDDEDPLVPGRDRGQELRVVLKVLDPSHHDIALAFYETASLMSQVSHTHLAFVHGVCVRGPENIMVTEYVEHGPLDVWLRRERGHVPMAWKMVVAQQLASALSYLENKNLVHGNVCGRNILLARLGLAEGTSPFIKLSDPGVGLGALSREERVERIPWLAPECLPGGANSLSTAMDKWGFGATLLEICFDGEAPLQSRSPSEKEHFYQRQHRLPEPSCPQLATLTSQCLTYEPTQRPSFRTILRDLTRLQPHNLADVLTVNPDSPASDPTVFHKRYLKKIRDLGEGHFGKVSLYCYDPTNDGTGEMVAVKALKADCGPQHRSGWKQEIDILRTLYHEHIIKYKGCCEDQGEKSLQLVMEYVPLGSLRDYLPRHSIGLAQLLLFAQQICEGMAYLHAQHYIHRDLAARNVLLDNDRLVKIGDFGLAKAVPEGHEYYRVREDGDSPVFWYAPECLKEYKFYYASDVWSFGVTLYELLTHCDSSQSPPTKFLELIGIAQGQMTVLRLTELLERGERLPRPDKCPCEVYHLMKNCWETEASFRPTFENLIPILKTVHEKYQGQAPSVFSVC
Output spec: scalar in nM, unitless text.

query: # input molecule: `CNC(=O)c1n[nH]c2cc(-c3cc(F)c(O)cc3CC(F)(F)F)nc(NCc3ccccc3N(C)S(=O)(=O)c3cn[nH]c3)c12` ; wanted: its IC50
result: 67.5

query: Same for `CNC(=O)c1n[nH]c2nc(-c3cc(F)c(O)cc3CC(F)(F)F)nc(NCc3ccccc3N(C)S(C)(=O)=O)c12`
result: 503

query: Same for `CNC(=O)c1n[nH]c2cc(-c3cc(F)c(O)cc3CC(F)(F)F)nc(NCc3ncccc3N(C)S(C)(=O)=O)c12`
result: 45.9

query: Same for `CCc1cc(O)c(F)cc1-c1cc2[nH]nc(-c3nnc(C)[nH]3)c2c(NCc2ccccc2N(C)S(C)(=O)=O)n1`
result: 14.6

query: Same for `CCN(c1ccc(O)cc1CNc1nc(-c2cc(F)c(O)cc2CC(F)(F)F)cc2[nH]nc(C(N)=O)c12)S(=O)(=O)c1ccccc1`
result: 439

query: Same for `CCc1cc(O)ccc1-c1cc2[nH]ncc2c(NCc2c(C)cccc2N(C)S(C)(=O)=O)n1`
result: 625

query: Same for `CNC(=O)c1n[nH]c2cc(-c3cc(F)c(O)cc3CC(F)(F)F)nc(NCc3ccccc3N(C)S(=O)(=O)c3cccnc3)c12`
result: 72.3

query: Same for `CCc1cc(O)c(F)cc1-c1cc2[nH]nc(C(=O)NC)c2c(NCc2cc(Cl)ccc2N(C)S(C)(=O)=O)n1`
result: 15.3

query: Same for `CCN(c1nccnc1CNc1nc(-c2cc(F)c(O)cc2CC(F)(F)F)cc2[nH]nc(C(N)=O)c12)S(C)(=O)=O`
result: 167

query: Same for CCc1cc(O)c(F)cc1-c1nc(NCc2ccccc2N(C)S(C)(=O)=O)c2cn[nH]c2n1 [Example 155, hydrochloride]
result: 61

query: Same for `CCCCN(c1ccccc1CNc1nc(-c2cc(F)c(O)cc2CC)cc2[nH]ncc12)S(C)(=O)=O`
result: 1990

query: Same for `CNC(=O)c1n[nH]c2cc(-c3cc(F)c(O)cc3CC(F)(F)F)nc(NCc3ccccc3N(C)S(=O)(=O)CCOC)c12`
result: 56.5

query: Same for CCc1cc(O)c(F)cc1-c1cc2[nH]ncc2c(NCc2cc(Cl)ccc2N(C)S(C)(=O)=O)n1 [Example 133, hydrochloride]
result: 249

query: Same for `CN(c1ccc(O)cc1CNc1nc(-c2cc(F)c(O)cc2CC(F)(F)F)cc2[nH]nc(C(N)=O)c12)S(=O)(=O)c1ccccc1`
result: 233

query: Same for `CNC(=O)c1n[nH]c2cc(-c3cc(F)c(O)cc3CC(F)(F)F)nc(NCc3cc(C)cnc3N(C)S(C)(=O)=O)c12`
result: 2030

query: Same for `CN(c1ccccc1CNc1nc(-c2cc(F)c(O)cc2C2CC2)cc2[nH]nc(C(N)=O)c12)S(C)(=O)=O`
result: 320

query: Same for `Cc1ccc(N(C)S(C)(=O)=O)c(CNc2nc(-c3cc(F)c(O)cc3CC(F)(F)F)cc3[nH]ncc23)c1`
result: 4160

query: Same for CCc1cc(O)c(F)cc1-c1cc2[nH]ncc2c(NCc2c(F)cccc2N(C)S(C)(=O)=O)n1 [Example 134, hydrochloride]
result: 20.3

query: Same for `CCN(c1ncc(Cl)cc1CNc1nc(-c2cc(F)c(O)cc2CC(F)(F)F)cc2[nH]nc(C(N)=O)c12)S(C)(=O)=O`
result: 2750

query: Same for `CCc1cc(O)cc(C)c1-c1cc2[nH]ncc2c(NCc2ccccc2N(C)S(C)(=O)=O)n1`
result: 10000

query: Same for CCc1cc(O)ccc1-c1cc2[nH]ncc2c(N2CCc3ccc(S(=O)(=O)NCCN4CCCC4)cc3C2)n1 [Example 116, formate]
result: 163

query: Same for `CN(c1ncc(Cl)cc1CNc1nc(-c2cc(F)c(O)cc2CC(F)(F)F)cc2[nH]nc(C(N)=O)c12)S(C)(=O)=O`
result: 3450

query: Same for `CCc1cc(O)ccc1-c1cc2[nH]ncc2c(N2CCC(OC)CC2)n1`
result: 514

query: Same for `CNC(=O)c1n[nH]c2cc(-c3cc(F)c(O)cc3CC(F)(F)F)nc(NCc3ccccc3N(C)S(=O)(=O)N(C)C)c12`
result: 149

query: Same for `CCc1cc(O)c(F)cc1-c1cc2[nH]ncc2c(NCc2ccccc2N(CCO)S(C)(=O)=O)n1`
result: 49.4

query: Same for `CN(c1ncc(F)cc1CNc1nc(-c2cc(F)c(O)cc2CC(F)(F)F)cc2[nH]nc(C(N)=O)c12)S(C)(=O)=O`
result: 930

query: Same for `CCN(c1ccccc1CNc1nc(-c2cc(F)c(O)cc2CC(F)(F)F)cc2[nH]nc(C(N)=O)c12)S(C)(=O)=O`
result: 23.2
